Listing of recorded Kd by entry.
studySystem: apoferritin from equine spleen (Equus caballus)
Construct: the apoferritin from equine spleen (A3660, Sigma-Aldrich) that is not combined with iron was used
Sequence (P02791 2-175 limits assumed): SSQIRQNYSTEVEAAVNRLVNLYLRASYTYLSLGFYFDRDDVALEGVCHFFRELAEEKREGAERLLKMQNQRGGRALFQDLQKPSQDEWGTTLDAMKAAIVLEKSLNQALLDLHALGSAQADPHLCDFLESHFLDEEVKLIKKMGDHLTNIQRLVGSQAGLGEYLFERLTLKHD
testDetails: Isothermal titration calorimetry (ITC) binding to ferritin
Just the number in µM, nothing appended.

Q) Entry CCCCCCCC/C=C\CCCCCCCC(=O)O [OA, oleic acid, reference compound] needs its Kd filled in; supply it.
A) 12.8

Next:
Q) Entry CCCCCCCCC=CCCCCCCCC(=O)NCCCC(=O)NC(C(=O)N1CC(O)CC1C(=O)NCc1ccc(-c2scnc2C)cc1)C(C)(C)C (centres unmarked) [DeFer-2] needs its Kd filled in; supply it.
A) 17.1
